# STUDY_TARGET: SCRIB_1, Q14160
# Sequence (Q14160 718-814): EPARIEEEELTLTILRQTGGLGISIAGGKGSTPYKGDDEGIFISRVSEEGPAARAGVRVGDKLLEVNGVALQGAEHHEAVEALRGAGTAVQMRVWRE
# EXPERIMENTAL_PROTOCOL: holdup assay
# Design: key: below the threshold = too weak to quantify, mostly under pKd 3.1 to 4
# MEASUREMENT_CONTEXT: plain residues with an end cap or a label only (N-terminal biotin on a linker: ado-ado)
Record Condition met whenever pKd is at 4 or higher; record Condition not met when lower.

# check: pKd of EALLQMESVA [CAVIN3, Q969G5] is greater than or equal to 4
Condition not met

Hi, just wondering whether VDSTVKVWTC [TRAF7, Q6Q0C0] shows pKd of 4 or higher.
Condition not met

Determine whether this binder has pKd no lower than 4: TKGPRGPTRV [SAPCD1, Q5SSQ6]
Condition not met
